SYSTEM TESTED: Tyrosine-protein kinase Fyn (Homo sapiens, UniProt P06241)
Sequence (P06241 2-537 limits assumed): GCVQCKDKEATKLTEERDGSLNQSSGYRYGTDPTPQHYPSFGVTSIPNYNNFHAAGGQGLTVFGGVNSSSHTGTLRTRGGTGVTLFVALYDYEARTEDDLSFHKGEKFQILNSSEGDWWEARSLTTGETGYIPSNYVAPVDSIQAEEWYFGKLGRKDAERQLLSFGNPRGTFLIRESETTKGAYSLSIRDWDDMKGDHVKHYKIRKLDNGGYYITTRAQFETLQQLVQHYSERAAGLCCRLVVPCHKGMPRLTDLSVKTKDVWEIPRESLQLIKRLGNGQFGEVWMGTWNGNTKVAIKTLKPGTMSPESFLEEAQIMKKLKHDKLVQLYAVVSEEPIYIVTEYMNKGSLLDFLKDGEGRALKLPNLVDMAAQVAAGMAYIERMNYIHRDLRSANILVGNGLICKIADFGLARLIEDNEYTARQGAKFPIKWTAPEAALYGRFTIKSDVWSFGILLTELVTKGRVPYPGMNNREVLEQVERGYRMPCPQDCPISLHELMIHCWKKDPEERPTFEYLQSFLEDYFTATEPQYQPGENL
ASSAY METHOD TEXT: Inhibition of natural amyloid beta (1 to 42) -induced Fyn activation in hiPSC neural progenitor cells assessed as reduction in Fyn production at 10 uM preincubated fot 45 mins followed by amyloid beta addition and measured after 15 mins by DAPI/Alexa fluor 594 immunostaining based assay
ASSAY CONTEXT: Induced pluripotent stem cell-derived neuron, time 60.0 min
Active and inactive are the calls of the source. No cut-off for these calls is given here.
MEASURE: inhibition

Recorded inhibition, per entry:
>  <INPUT SMILES>
O=c1c(-c2ccc(O)cc2)coc2cc(O)cc(O)c12

>  <inhibition>
Active

$$$$
>  <INPUT SMILES>
O=C(Oc1ccc([C@@H]2O[C@H](CO)[C@@H](O)[C@H](O)[C@H]2O)cc1OC(=O)c1ccccc1)c1ccccc1

>  <inhibition>
Active

$$$$
>  <INPUT SMILES>
COC[C@H]1O[C@@H](c2cc(OC(=O)c3ccccc3)ccc2OC(=O)c2ccccc2)[C@H](OC)[C@@H](OC)[C@@H]1OC

>  <inhibition>
Active

$$$$
>  <INPUT SMILES>
O=C(Oc1ccc(O)c([C@@H]2O[C@H](CO)[C@@H](O)[C@H](O)[C@H]2O)c1)c1ccccc1

>  <inhibition>
Active

$$$$

Retrieve inhibition measured for COC[C@H]1O[C@@H](c2c(O)cc(O)cc2O)[C@H](OC)[C@@H](OC)[C@@H]1OC and print it. Active

Retrieve inhibition measured for CC(=O)c1c(O)cc(O)c([C@@H]2O[C@H](CO)[C@@H](O)[C@H](O)[C@H]2O)c1O and print it. Active

Retrieve inhibition measured for OC[C@H]1O[C@@H](c2c(O)ccc3ccccc23)[C@H](O)[C@@H](O)[C@@H]1O and print it. Active

Retrieve inhibition measured for COC[C@H]1O[C@@H](c2ccc(OC(=O)c3ccccc3)c(OC(=O)c3ccccc3)c2)[C@H](OC)[C@@H](OC)[C@@H]1OC and print it. Active

Retrieve inhibition measured for COC[C@H]1O[C@@H](c2c(O)cc(O)c(C(C)=O)c2O)[C@H](OC)[C@@H](OC)[C@@H]1OC and print it. Active
